Tested on: johnsongrass (Sorghum halepense)
Experiment: Test C pre/postemergence
Format: in vivo
Settings: Postemergence, 250 g ai/ha; scale 0 to 100
Source text: […]
Observation Type: Plant response rating, Johnsongrass
Numbers only.

Example entries begin here.
>>> numeric_value("CC(=O)NN=Cc1nc(C2CC2)nc(N)c1Br")
0
>>> numeric_value("CNN=Cc1nc(C2CC2)nc(N)c1Br")
35
>>> numeric_value("COC(=O)c1nc(C2CC2C)nc(N)c1Br (stereo not shown)")
0

Proceed to the following item.
Query: Look up Plant response rating, Johnsongrass: `Nc1nc(C2CC2)nc(C=NO)c1Br`
Response: 0
